system: DGKζ (Homo sapiens (Human))
Sequence (Q13574 other isoform, or with tags, fused parts or gaps): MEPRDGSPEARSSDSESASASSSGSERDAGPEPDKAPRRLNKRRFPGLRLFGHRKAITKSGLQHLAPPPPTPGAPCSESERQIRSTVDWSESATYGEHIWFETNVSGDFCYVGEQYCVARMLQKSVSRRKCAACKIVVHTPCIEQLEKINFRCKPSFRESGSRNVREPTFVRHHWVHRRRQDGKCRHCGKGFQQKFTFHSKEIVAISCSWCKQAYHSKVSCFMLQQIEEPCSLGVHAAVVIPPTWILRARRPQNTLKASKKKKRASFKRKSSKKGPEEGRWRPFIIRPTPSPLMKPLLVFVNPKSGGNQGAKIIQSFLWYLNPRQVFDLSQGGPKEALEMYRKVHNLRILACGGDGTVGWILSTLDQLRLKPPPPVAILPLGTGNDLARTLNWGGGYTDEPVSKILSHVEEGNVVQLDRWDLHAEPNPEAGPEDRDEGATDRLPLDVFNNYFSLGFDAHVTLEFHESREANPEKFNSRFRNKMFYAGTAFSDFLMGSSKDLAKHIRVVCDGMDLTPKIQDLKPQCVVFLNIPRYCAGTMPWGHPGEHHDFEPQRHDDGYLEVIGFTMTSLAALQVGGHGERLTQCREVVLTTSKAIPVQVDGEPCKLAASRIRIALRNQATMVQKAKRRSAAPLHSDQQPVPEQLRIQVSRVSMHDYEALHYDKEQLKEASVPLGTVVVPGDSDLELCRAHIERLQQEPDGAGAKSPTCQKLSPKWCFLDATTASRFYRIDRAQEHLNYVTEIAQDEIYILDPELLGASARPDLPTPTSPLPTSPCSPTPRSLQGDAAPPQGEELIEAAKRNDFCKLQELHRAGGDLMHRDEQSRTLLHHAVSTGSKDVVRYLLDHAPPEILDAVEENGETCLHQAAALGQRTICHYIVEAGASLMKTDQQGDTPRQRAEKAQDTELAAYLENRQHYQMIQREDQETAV
procedureSummary: Biochemical DGK IC50 assay, DGKζ ADP-Glo assay
conditionDetails: 0.5 nM enzyme, 140 μM ATP, 80 μM DAG; read-out: DGKζ ADP-Glo assay IC50
Procedure: Enzymatic reactions of DGKζ, DGKα and DGKδ were performed using ADP-Glo assay with lipid micelle substrate. […] Full length DGKα (D21-10BG, SignalChem) and full length DGKδ (D23-10G, SignalChem) were purchased. Lipid micelle was prepared by dissolving DAG (Sigma, 317505-10MG) and PS (Sigma, P7769-100MG) with chloroform which was furtherly removed by rotary evaporation. […]
Exercise: for every item that follows, state its recorded IC50.
Report the figure in µM without appending any unit label.

Give IC50; test system DGKζ (Homo sapiens (Human)); molecule CC[C@H]1CN(C(C)c2ccc(CN3CCC(F)(F)CC3)nc2)[C@H](CC)CN1c1cc(=O)n(C)c2cn(CC#N)nc12 (single isomer, unassigned) [Compound A381b]
2.33

Give IC50; test system DGKζ (Homo sapiens (Human)); molecule CC[C@H]1CN(C(C)c2cnc3ccccc3n2)[C@H](CC)CN1c1cc(=O)n(C)c2cn(CC#N)nc12 (single isomer, unassigned) [Compound A155b]
0.0076

Give IC50; test system DGKζ (Homo sapiens (Human)); molecule CC(c1ccc(F)cc1C(F)F)N1C[C@H](C)N(c2cc(=O)n(C)c3cn(CC#N)nc23)C[C@H]1C (stereo partly drawn)
1.37

Give IC50; test system DGKζ (Homo sapiens (Human)); molecule CC[C@H]1CN(C(C)c2cnn(CC)c2C(F)(F)F)[C@H](CC)CN1c1cc(=O)n(C)c2cn(CC#N)nc12 (single isomer, unassigned) [Compound A119b]
0.964

Give IC50; test system DGKζ (Homo sapiens (Human)); molecule CC[C@H]1CN(C(C)c2cnccn2)[C@H](CC)CN1c1cc(=O)n(C)c2cn(CC#N)nc12 (stereo partly drawn)
9.44

Give IC50; test system DGKζ (Homo sapiens (Human)); molecule CC[C@H]1CN(C(C)c2nc3cc(C(F)(F)F)ccc3n2CC)[C@H](CC)CN1c1cc(=O)n(C)c2cn(CC#N)nc12 (single isomer, unassigned) [Compound A203a]
2.21
